# test protocol: sensitizers of A549 cells to miR-34 induction, primary screen, imaging, A549 dox-inducible miR-34, nuclei and caspase counts (AID 1347080)
# measurement parameters: A549 miR-34 inducible, Hoechst nuclei count, 48 h; measured here: relative caspase fold change +Dox/-Dox

compound	fold change
CCCC[N+]1(C)C2CC(OC(=O)[C@H](CO)c3ccccc3)CC1C1OC12 (stereo partly drawn)	1.39
C[N+]1(CCC(C(N)=O)(c2ccccc2)c2ccccc2)CCCCC1	2.2
C[C@]12CCC(O)CC1=CC[C@@H]1[C@H]2CC[C@]2(C)C(=O)CC[C@@H]12 (stereo partly drawn)	0.858
CC(C)[C@]12OC1C1O[C@]13[C@]1(OC1CC1C4=C(CC[C@@]13C)C(=O)OC4)C2O (stereo partly drawn)	1.93
CN1[C@@H]2CC(=O)C[C@H]1[C@H](O)C2	0.592
C[C@@H]1O[C@@H](O[C@@H]2C[C@@H](O)[C@]3(CO)[C@H]4[C@H](O)C[C@]5(C)[C@@H](C6=CC(=O)OC6)CC[C@]5(O)[C@@H]4CC[C@]3(O)C2)[C@H](O)[C@H](O)[C@H]1O	1.91
CO[C@@H]1C[C@@H](C[C@H]2CC[C@H](C)[C@H]([C@@H](C)C(=O)O)O2)O[C@]2(O[C@](C)([C@H]3CC[C@@](C)([C@@H]4O[C@@H]([C@H]5O[C@@](O)(CO)[C@H](C)C[C@@H]5C)C[C@@H]4C)O3)C[C@H]2C)[C@@H]1C	1.75
O=C(NCC1CCOCC1)c1cnc(Nc2ccc(Cl)cc2Cl)nc1C(F)(F)F	1.15

* * *

# test protocol: inhibition of 3D7 malaria parasite growth – strain 3D7 (AID 2306);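 note: 0% = DMSO wells and 100% = chloroquine plus artemisinin control wells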
# measurement parameters: P. falciparum 3D7 erythrocytic growth, LDH absorbance, 72 h; at 2 µM; stronger effect = higher value
Tick satisfied if growth inhibition is 90% or greater. Tick not satisfied if growth inhibition is less than 90%.

molecule	classification
COc1cc(NCCCNC(=O)c2cn(Cc3ccccc3)c3ccccc23)nc2ccccc12	satisfied
Cc1[nH]c2ccccc2c1C1=CCN(CCCCCNC(=O)/C=C/c2ccc(Cl)c(Cl)c2)CC1	satisfied
COc1cc(C(=O)NC2CCC(CN3CCC(c4c[nH]c5ccccc45)CC3)CC2)cc(Cl)n1 (centres undefined)	satisfied
O=C(Nc1ccc(Oc2ccccc2)cc1)NC1CCC(CN2CCC(c3c[nH]c4ccccc34)CC2)CC1 (centres undefined)	satisfied
Cc1[nH]c2ccccc2c1C1=CCN(CCCCC2(C)C(=O)Nc3ccccc32)CC1 (centres undefined)	satisfied
CC(=O)Nc1ccc(OCCN(CC(C)(C)C)c2ccc(C#N)c(C(F)(F)F)c2)c(Cl)c1	not satisfied

* * *

Entries annotated with measured activity remaining
# Test system: Aerobactin synthetase IucA (Klebsiella pneumoniae hvKP1)
# test protocol: Biochemical IucA enzyme inhibition primary screen of the Spectrum library (AID 1346200);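 note: 100% = wells without compound and 0% = wells lacking enzyme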
# measurement parameters: malachite green pyrophosphate, A620, at 8 µM, stronger effect = lower value

molecule	activity remaining (%)
CN(C)CCC(c1ccccc1)c1ccccn1 (stereo not given)	109
CC1C/C=C/C=C/C=C/C=C/C(O[C@@H]2O[C@H](C)[C@@H](O)[C@H](N)[C@@H]2O)CC2OC(O)(CC(O)CC3OC3/C=C/C(=O)O1)CC(O)C2C(=O)O (stereo not given in full)	118
CC(C)(C)C(=O)C(Oc1ccc(Cl)cc1)n1cncn1 (stereo not given)	127
CS(=O)(=O)OCCCCOS(C)(=O)=O	79.2
CC[C@@H]1C(=O)OC[C@@H]1Cc1cncn1C	115
